B1: CPEB3 Ribozyme (parent)
chain: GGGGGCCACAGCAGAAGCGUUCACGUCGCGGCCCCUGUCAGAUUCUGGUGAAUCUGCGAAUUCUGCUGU

- Variants of: B1
- assayNotes: self-cleavage, relative activity (ratio to wild type); higher = more cleavage; co-transcriptional
Respond with 1 for self-cleavage values of 0.3 and above, 0 for values below.

(Q) Does the reported self-cleavage for GGGGGCCACAGCAGAAGCGUUCACGUCGCGGCCCCUGUCAGAUUCUGGUUAAUCUGCGAAUUCUGUUGU [G50U C66U] fall at or above the 0.3 mark?
(A) 1

(Q) Does the reported self-cleavage for GGGCGCCACAGCAGAAGCGUUCUCGUCGCGGCCCCUGUCAGAUUCUGGUGAAUCUGCGAAUUCUGCUGU [G4C A23U] fall at or above the 0.3 mark?
(A) 1

(Q) Does the reported self-cleavage for GGGGGCCACAGUAGAAGCGUUCACGUCGCGGCCCCUGUCUGAUUCUGGUGAAUCUGCGAAUUCUGCUGU [C12U A40U] fall at or above the 0.3 mark?
(A) 1

(Q) Does the reported self-cleavage for GGCGGCCACAGCAGAAGCGUUCACGUCGCGGCCCCUGUCAGAUUCUGGUGAAUCUGCGAAUACUGCUGU [G3C U62A] fall at or above the 0.3 mark?
(A) 0

(Q) Does the reported self-cleavage for GGGGGCCACAGCAGAAGCGUUCACAUCGCGGCCCCUGUCAGAUUUUGGUGAAUCUGCGAAUUCUGCUGU [G25A C45U] fall at or above the 0.3 mark?
(A) 0

(Q) Does the reported self-cleavage for GGGGGCCACAGCAGAAGCGUGCACGUCGCGGCCUCUGUCAGAUUCUGGUGAAUCUGCGAAUUCUGCUGU [U21G C34U] fall at or above the 0.3 mark?
(A) 1

(Q) Does the reported self-cleavage for GGGGGCCACAGCAGAAGCGUUCAGGUCGCGGCCCCUGUCAGAGUCUGGUGAAUCUGCGAAUUCUGCUGU [C24G U43G] fall at or above the 0.3 mark?
(A) 0

(Q) Does the reported self-cleavage for GGGGGCCACAGCAGAAGCGUUCUCGUCGCGGCCUCUGUCAGAUUCUGGUGAAUCUGCGAAUUCUGCUGU [A23U C34U] fall at or above the 0.3 mark?
(A) 1

(Q) Does the reported self-cleavage for GGGGGCCACAGCAGAAUCGUUCACGUCGCGGCCCCUGUCGGAUUCUGGUGAAUCUGCGAAUUCUGCUGU [G17U A40G] fall at or above the 0.3 mark?
(A) 1

(Q) Does the reported self-cleavage for GGGGGCCACAGCAGAAGCGUUCACGUCGCGUCCCCUGUCAGAUUCUGGUGAACCUGCGAAUUCUGCUGU [G31U U53C] fall at or above the 0.3 mark?
(A) 1

(Q) Does the reported self-cleavage for GGGGGCCACAGCAGAACCGUUCACGUCGCGGCCCCUGUCAGAUGCUGGUGAAUCUGCGAAUUCUGCUGU [G17C U44G] fall at or above the 0.3 mark?
(A) 0

(Q) Does the reported self-cleavage for GGGGGCCACAGCAGAAGCGUUCACGUCGCGGCCCCUGUCACAUUCUGGUAAAUCUGCGAAUUCUGCUGU [G41C G50A] fall at or above the 0.3 mark?
(A) 1

(Q) Does the reported self-cleavage for GGGGGCCACAGCAGAAGCGUUCACGUCGCGGCCCCUGUCAGAUUGUUGUGAAUCUGCGAAUUCUGCUGU [C45G G47U] fall at or above the 0.3 mark?
(A) 1

(Q) Does the reported self-cleavage for GGGGGCCACAGCAGAAGCCUUCACGUCGCGGCCCCUGUCAGAUUCUGGUGAAUCUGUGAAUUCUGCUGU [G19C C57U] fall at or above the 0.3 mark?
(A) 0

(Q) Does the reported self-cleavage for GGGGGCCACAGCAGAAGCGUUCACGUCGCGGCCCCUGUCAGAUUCUAGUGAUUCUGCGAAUUCUGCUGU [G47A A52U] fall at or above the 0.3 mark?
(A) 1

(Q) Does the reported self-cleavage for GGGGGCCACAGCAGAAGCAUUCACGUCGCGGCCCCUGUCAGAUUCUGGUGAAUCUGCGAAUUCUGCUAU [G19A G68A] fall at or above the 0.3 mark?
(A) 0

(Q) Does the reported self-cleavage for GGGGGCCAAAGAAGAAGCGUUCACGUCGCGGCCCCUGUCAGAUUCUGGUGAAUCUGCGAAUUCUGCUGU [C9A C12A] fall at or above the 0.3 mark?
(A) 1

(Q) Does the reported self-cleavage for GGGGGCCACAGCAGAAGCGUUCAGGUCGCGGCCCCUGUCUGAUUCUGGUGAAUCUGCGAAUUCUGCUGU [C24G A40U] fall at or above the 0.3 mark?
(A) 0

(Q) Does the reported self-cleavage for GGGGGCCACAGCAGAAGCGUUCAAGUCGCGGCCCCUGUCAGAUUCUGGGGAAUCUGCGAAUUCUGCUGU [C24A U49G] fall at or above the 0.3 mark?
(A) 1

(Q) Does the reported self-cleavage for GGGGGCCACAGCAGAAGCGUUCACGCCGCGGCCCCUCUCAGAUUCUGGUGAAUCUGCGAAUUCUGCUGU [U26C G37C] fall at or above the 0.3 mark?
(A) 0

(Q) Does the reported self-cleavage for GGGGGCCACAGCAGAAACGUUCACGUCGCGGCCCCUGUCAGAUUCUGGUGAAUCUGCGAAUUCUGCUGA [G17A U69A] fall at or above the 0.3 mark?
(A) 1

(Q) Does the reported self-cleavage for GGCGGCCACAGCAGAAGCGUUCACGUCGCGGCCCCUGUCAGAUUCUGGUGAAUCUGCGAAUUCUGUUGU [G3C C66U] fall at or above the 0.3 mark?
(A) 0

(Q) Does the reported self-cleavage for GGGGUCCACAGCAGAAGCGUUCACGUCGCGGCCCCUGGCAGAUUCUGGUGAAUCUGCGAAUUCUGCUGU [G5U U38G] fall at or above the 0.3 mark?
(A) 0

(Q) Does the reported self-cleavage for GGGGGCCACAGCAGAAGCGUUCCCGUCGCGGCCCCUGUCUGAUUCUGGUGAAUCUGCGAAUUCUGCUGU [A23C A40U] fall at or above the 0.3 mark?
(A) 1

(Q) Does the reported self-cleavage for GGGGGCCACAGCAGAAGCGUUUACGUCGCGGCCCCUGUCAGAUUCUGGUGAAUCUGCGGAUUCUGCUGU [C22U A59G] fall at or above the 0.3 mark?
(A) 1

(Q) Does the reported self-cleavage for GGGGGCCACAGCAGAAGUGUUAACGUCGCGGCCCCUGUCAGAUUCUGGUGAAUCUGCGAAUUCUGCUGU [C18U C22A] fall at or above the 0.3 mark?
(A) 0

(Q) Does the reported self-cleavage for GGGUGCAACAGCAGAAGCGUUCACGUCGCGGCCCCUGUCAGAUUCUGGUGAAUCUGCGAAUUCUGCUGU [G4U C7A] fall at or above the 0.3 mark?
(A) 0

(Q) Does the reported self-cleavage for AGGGGCCACAGCAGAAGCGUUCACGUCGCGGCCCCUGUCAGAUUCUGGUGAAUCUGCUAAUUCUGCUGU [G1A G58U] fall at or above the 0.3 mark?
(A) 0

(Q) Does the reported self-cleavage for GGGGGCCACAGCAGAAGCGUUCACGUUGCGGCCCCUGUCAGAUUCUGGUGAAUCUGCGAAUCCUGCUGU [C27U U62C] fall at or above the 0.3 mark?
(A) 0

(Q) Does the reported self-cleavage for GGGGGCCACAGCAGAAGCGUUCACGUCCCGGCCCCUGUCAGAUUCUGGUGAAUCUGCGAAUUCUGCUGU [G28C] fall at or above the 0.3 mark?
(A) 0

(Q) Does the reported self-cleavage for GGGGGCCACAGCAGAAGCGUUCACGUCGCGGCCCCUGUCAUAUUCUGGUGAAUCUCCGAAUUCUGCUGU [G41U G56C] fall at or above the 0.3 mark?
(A) 1

(Q) Does the reported self-cleavage for GGGGGCCACAGCAGAAGCGUUCACGUCGCGGCCCCGGUCAGAUUCUUGUGAAUCUGCGAAUUCUGCUGU [U36G G47U] fall at or above the 0.3 mark?
(A) 0

(Q) Does the reported self-cleavage for GGAGGCCACAGCAGAAGCGUUCACGUCGCGGCCCCUGUCAGAUUCCGGUGAAUCUGCGAAUUCUGCUGU [G3A U46C] fall at or above the 0.3 mark?
(A) 1

(Q) Does the reported self-cleavage for GGGGGCCACAGCAGAAGCGUUCACGUCGCGGCCCCUGUCAGAUUCUGGUGAAUCUGGGAAUUCUGCUGU [C57G] fall at or above the 0.3 mark?
(A) 1

(Q) Does the reported self-cleavage for GGGGGCCACAGCAGAAGCGUUCACGUCGCGGCCUCUGUCAGAUUCUGGUGAAUCUGCGAAUUCAGCUGU [C34U U64A] fall at or above the 0.3 mark?
(A) 1

(Q) Does the reported self-cleavage for GGGGGCCACAGCAGAAGCGUUCACGUCCCGGCCCCUGUCAGAUUCUGGUGAAUCUGCAAAUUCUGCUGU [G28C G58A] fall at or above the 0.3 mark?
(A) 0

(Q) Does the reported self-cleavage for GGGGGCCGCAGCAGAAGCGUUCACGUCGCGGCCCCUAUCAGAUUCUGGUGAAUCUGCGAAUUCUGCUGU [A8G G37A] fall at or above the 0.3 mark?
(A) 0

(Q) Does the reported self-cleavage for GGGGGCCACAGCAGAAGCGUUCACGUCGGGGCCCCUGUCAGAUUCUGGUGAAUCUGCGAACUCUGCUGU [C29G U61C] fall at or above the 0.3 mark?
(A) 0

(Q) Does the reported self-cleavage for GUGGGCCACAGCAGAAGCGUUCACGUCGCGGCCCCUGUCAGAUUCUGGAGAAUCUGCGAAUUCUGCUGU [G2U U49A] fall at or above the 0.3 mark?
(A) 0

(Q) Does the reported self-cleavage for GGGGGCCACAGCAGAAGCGUUCACGUCGCGGCCCCUGUCAGAUUCAGGUGAAUCUGCGAAUUCUGCUUU [U46A G68U] fall at or above the 0.3 mark?
(A) 1

(Q) Does the reported self-cleavage for GGGGGCCACAGCAGAAGCGUUCACCACGCGGCCCCUGUCAGAUUCUGGUGAAUCUGCGAAUUCUGCUGU [G25C U26A] fall at or above the 0.3 mark?
(A) 0

(Q) Does the reported self-cleavage for GGGGGCCACAGCAGAAGCUUUCACGUCGCGGCCCCUGUCAGAUUCUGGUGAAUCUUCGAAUUCUGCUGU [G19U G56U] fall at or above the 0.3 mark?
(A) 0

(Q) Does the reported self-cleavage for GGGGGCCACAGCAGAAGCGUUCACGUCGCGGCCCCUGUCAGAUUAUGGUGAAUCUGCGAUUUCUGCUGU [C45A A60U] fall at or above the 0.3 mark?
(A) 1

(Q) Does the reported self-cleavage for GGGGGCCAUAGCACAAGCGUUCACGUCGCGGCCCCUGUCAGAUUCUGGUGAAUCUGCGAAUUCUGCUGU [C9U G14C] fall at or above the 0.3 mark?
(A) 1
